Ref: PubChem BioAssay (Tox21)

- testName: qHTS assay for identifying genotoxic compounds that show differential cytotoxicity against isogenic chicken DT40 cell lines with known DNA damage response pathways - wild type cell line (AID 743012); further: nearly all actives have a fitted effect of over 60% in size
- particulars: DT40 wild type chicken cells viability, CellTiter-Glo, 40 h; series mostly up to 68.4 µM
Results filed as inconclusive are left out. Activity calls are given as the source filed them. The call rests on the fitted dose curve; in most records, active means well fitted cell-killing curve with a large enough effect in the repeat runs; inconclusive means weak or mixed curves, or effect the other way; inactive means no such curve, though single readings can be large or run the other way.
Outcome (select one): active, inactive

{"molecule": "C[C@@H](CO)NC(=O)[C@@H]1C=C2c3cccc4[nH]cc(c34)C[C@H]2N(C)C1", "labelClass": "inactive"}
{"molecule": "CN(C)CCCCCCN(C)C (tested in a mixture with another compound)", "labelClass": "inactive"}
{"molecule": "O=C(O)/C=C\\C(=O)O", "labelClass": "inactive"}
{"molecule": "C/C(=C\\c1csc(C)n1)[C@@H]1C[C@@H]2O[C@]2(C)CCC[C@H](C)[C@H](O)[C@@H](C)C(=O)C(C)(C)[C@@H](O)CC(=O)O1", "labelClass": "active"}
{"molecule": "CCN1C[C@]2(COC)[C@H](O)C[C@H](OC)[C@@]34[C@@H]5C[C@@]6(O)[C@H](OC(=O)c7ccccc7)[C@@H]5[C@@](OC(C)=O)([C@@H]([C@H](OC)[C@H]23)[C@@H]14)[C@@H](O)[C@@H]6OC", "labelClass": "inactive"}
{"molecule": "CC(=O)OO", "labelClass": "inactive"}
{"molecule": "COC(=O)[C@H]1[C@@H](OC(=O)c2ccccc2)C[C@@H]2CC[C@H]1N2C", "labelClass": "inactive"}
{"molecule": "O=c1[nH]cc(N(CCCl)CCCl)c(=O)[nH]1", "labelClass": "inactive"}
{"molecule": "CN[C@@]1(c2ccccc2Cl)CCCCC1=O", "labelClass": "inactive"}
{"molecule": "CCCCCN(C)CCC(O)(P(=O)(O)O)P(=O)(O)O", "labelClass": "inactive"}

# fetch the recorded call for "O=C(CCl)c1ccc(Oc2ccc(C(=O)CCl)cc2)cc1" here
active

# fetch the recorded call for "Cc1cc(C(C)(C)c2ccc(O)c(C)c2)ccc1O" here
inactive
